- MEASUREMENT_TARGET: CDK2 (cyclin E1) (Homo sapiens (Human))
Structures can show the parent of a compound that is named as a salt.
METRIC_NAME: pIC50
The quantity pIC50 is defined as the negative base-10 logarithm of the molar concentration.

The molecule identified as CC(C)N1CCOc2c(F)cc(-c3nc(Nc4ccc(N5CCNCC5)c(F)c4)ncc3F)cc21 [Compound 12, hydrochloride] registered its pIC50 at 8.14

---

Where a name gives a salt, the structure may show the parent alone.
Entries with their measured IC50, system CDK2 (cyclin A) (Homo sapiens (Human), UniProt P24941):
Express your answer in nM, writing the number without its unit.

COMPOUND: CC(C)N1CCOc2c(F)cc(-c3nc(Nc4ccc(N5CCCNCC5)cn4)ncc3F)cc21
METRIC_NAME: IC50
MEASURED: 25
//
COMPOUND: CC(C)CN1CCOc2c(F)cc(-c3nc(Nc4ccc(C5CCN(C)CC5)cn4)ncc3F)cc21
METRIC_NAME: IC50
MEASURED: 44
//
COMPOUND: CCN1CCN(Cc2ccc(Nc3ncc(F)c(-c4cc(F)c5c(c4)N(C(C)C)CCO5)n3)nc2)CC1
METRIC_NAME: IC50
MEASURED: 12
//
COMPOUND: Fc1cnc(Nc2ccc3c(n2)CCNC3)nc1-c1cc(F)c2c(c1)N(C1CCCC1)CCO2
METRIC_NAME: IC50
MEASURED: 33
//
COMPOUND: CC(C)N1CCOc2c(F)cc(-c3nc(Nc4ccc(N5CCC(N(C)C)CC5)c(F)c4)ncc3F)cc21
METRIC_NAME: IC50
MEASURED: 3.4
//
COMPOUND: CC(C)N1CCOc2c(F)cc(-c3nc(Nc4ccn(C5CCNCC5)c(=O)c4)ncc3F)cc21
METRIC_NAME: IC50
MEASURED: 3
//
COMPOUND: CC(C)N1CCOc2c(F)cc(-c3nc(Nc4cc(C5CCN(C)CC5)n[nH]4)ncc3F)cc21
METRIC_NAME: IC50
MEASURED: 19
//
COMPOUND: Fc1cnc(Nc2ccc3c(n2)CCNC3)nc1-c1cc(F)c2c(c1)N(C1CCC1)CCO2
METRIC_NAME: IC50
MEASURED: 29

Case CC(C)CN1CCOc2c(F)cc(-c3nc(Nc4ccc5c(n4)CCNC5)ncc3F)cc21 , CDK2 (cyclin A) (Homo sapiens (Human), UniProt P24941), IC50 recorded as 44

Case Fc1cnc(Nc2ccc(N3CCCNCC3)cn2)nc1-c1cc(F)c2c(c1)N(C1CCCC1)CCO2 , CDK2 (cyclin A) (Homo sapiens (Human), UniProt P24941), IC50 recorded as 97

Case CC(C)N1CCOc2c(F)cc(-c3nc(Nc4ccc(N5CCC(N(C)C)CC5)cn4)ncc3F)cc21 , CDK2 (cyclin A) (Homo sapiens (Human), UniProt P24941), IC50 recorded as 8

Case CC(C)N1CCOc2c(F)cc(-c3nc(Nc4ccc(N5CCNCC5)c(F)c4)ncc3F)cc21 [Compound 12, hydrochloride] , CDK2 (cyclin A) (Homo sapiens (Human), UniProt P24941), IC50 recorded as 0.7

Case CC(C)N1CCOc2c(F)cc(-c3nc(Nc4ccc(C5CCN(C)C5)cn4)ncc3F)cc21 (stereo not shown) , CDK2 (cyclin A) (Homo sapiens (Human), UniProt P24941), IC50 recorded as 155

Case CC(C)N1CCOc2c(F)cc(-c3nc(Nc4cc(C5CCN(C)CC5)no4)ncc3F)cc21 , CDK2 (cyclin A) (Homo sapiens (Human), UniProt P24941), IC50 recorded as 2

Case CC(C)N1CCOc2c(F)cc(-c3nc(Nc4ccc(C5CCN(C)CC5)cn4)ncc3F)cc21 , CDK2 (cyclin A) (Homo sapiens (Human), UniProt P24941), IC50 recorded as 7

Case CC(C)N1CCOc2c(F)cc(-c3nc(Nc4ccc(N5CCC(CN)CC5)cn4)ncc3F)cc21 , CDK2 (cyclin A) (Homo sapiens (Human), UniProt P24941), IC50 recorded as 560

Case CC(C)N1CCOc2c(F)cc(-c3nc(Nc4ccc(C5CCN(C)CC5)nc4)ncc3F)cc21 , CDK2 (cyclin A) (Homo sapiens (Human), UniProt P24941), IC50 recorded as 2

Case COCCNS(=O)(=O)c1ccc(Nc2ncc(F)c(-c3cc(F)c4c(c3)N(C(C)C)CCO4)n2)cc1 , CDK2 (cyclin A) (Homo sapiens (Human), UniProt P24941), IC50 recorded as 74

---

// reported IC50 for each item listed
- MEASUREMENT_TARGET: CDK9 (cyclin K) (Homo sapiens (Human))
- Sequence (P50750 whole entry): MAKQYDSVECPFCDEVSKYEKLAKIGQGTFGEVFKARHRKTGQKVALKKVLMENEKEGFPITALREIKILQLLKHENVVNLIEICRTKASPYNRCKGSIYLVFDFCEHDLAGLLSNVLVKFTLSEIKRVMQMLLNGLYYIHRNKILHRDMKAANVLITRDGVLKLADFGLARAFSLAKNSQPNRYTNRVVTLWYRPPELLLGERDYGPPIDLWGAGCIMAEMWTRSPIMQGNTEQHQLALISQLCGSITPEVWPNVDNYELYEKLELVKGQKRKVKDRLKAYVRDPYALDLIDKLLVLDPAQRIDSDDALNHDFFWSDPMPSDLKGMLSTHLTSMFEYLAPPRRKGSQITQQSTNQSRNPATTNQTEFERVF
- Sequence (O75909 whole entry partner): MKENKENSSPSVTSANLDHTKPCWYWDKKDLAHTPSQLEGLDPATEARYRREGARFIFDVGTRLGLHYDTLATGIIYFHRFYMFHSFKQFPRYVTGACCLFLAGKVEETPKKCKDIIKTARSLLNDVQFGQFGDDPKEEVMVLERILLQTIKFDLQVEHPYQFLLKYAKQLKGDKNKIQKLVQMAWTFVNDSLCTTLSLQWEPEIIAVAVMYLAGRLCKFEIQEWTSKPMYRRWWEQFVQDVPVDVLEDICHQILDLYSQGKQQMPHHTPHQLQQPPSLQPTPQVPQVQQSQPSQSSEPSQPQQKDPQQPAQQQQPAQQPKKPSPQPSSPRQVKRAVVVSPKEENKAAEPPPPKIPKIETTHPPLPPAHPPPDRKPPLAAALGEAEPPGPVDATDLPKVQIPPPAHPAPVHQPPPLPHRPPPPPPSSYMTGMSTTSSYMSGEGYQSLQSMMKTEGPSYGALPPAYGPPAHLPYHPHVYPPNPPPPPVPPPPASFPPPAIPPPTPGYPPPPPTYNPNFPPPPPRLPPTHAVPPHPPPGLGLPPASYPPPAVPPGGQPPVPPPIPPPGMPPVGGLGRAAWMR
Express your answer in nM, writing the number without its unit.

Case CC(C)N1CCOc2c(F)cc(-c3nc(Nc4ccc(C5CCN(C)CC5)cn4)ncc3F)cc21 [Compound 442] , CDK9 (cyclin K) (Homo sapiens (Human)), IC50 recorded as 41

Case CC(C)N1CCOc2c(F)cc(-c3nc(Nc4ccc(C5CCN(C)CC5)nc4)ncc3F)cc21 [Compound 33] , CDK9 (cyclin K) (Homo sapiens (Human)), IC50 recorded as 2

Case CC(C)N1CCOc2c(F)cc(-c3nc(Nc4ccc(N5CCC(N(C)C)CC5)c(F)c4)ncc3F)cc21 [Compound 25] , CDK9 (cyclin K) (Homo sapiens (Human)), IC50 recorded as 5

Case CC(C)N1CCOc2c(F)cc(-c3nc(Nc4ccc(N5CCC(N(C)C)CC5)cn4)ncc3F)cc21 [Compound 436] , CDK9 (cyclin K) (Homo sapiens (Human)), IC50 recorded as 73

---

- MEASUREMENT_TARGET: CDK6 (Homo sapiens (Human))
Where a name gives a salt, the structure may show the parent alone.
// reported pIC50 for each item listed
The quantity pIC50 is defined as the negative base-10 logarithm of the molar concentration.

COMPOUND: CC(C)N1CCOc2c(F)cc(-c3nc(Nc4ccc(N5CCN(C(=O)CN(C)C)CC5)cc4)ncc3F)cc21
MEASURED: 8.70
//
COMPOUND: CC(C)N1CCOc2c(F)cc(-c3nc(Nc4ccc(C5CCNCC5)c(C(F)(F)F)c4)ncc3F)cc21
MEASURED: 7.13
//
COMPOUND: CC(C)N1CCOc2c(F)cc(-c3nc(Nc4ccc(C5CCN(C)CC5)nn4)ncc3F)cc21
MEASURED: 8.40

Now consider a different compound.
The compound identified as COC1CCN(c2ccc(Nc3ncc(F)c(-c4cc(F)c5c(c4)N(C(C)C)CCO5)n3)nc2)CC1 [Compound 843, hydrochloride] registered its pIC50 at 7.62

---

- MEASUREMENT_TARGET: PI3Kδ kinase (Homo sapiens (Human), UniProt O00329)
- Sequence (O00329 whole entry): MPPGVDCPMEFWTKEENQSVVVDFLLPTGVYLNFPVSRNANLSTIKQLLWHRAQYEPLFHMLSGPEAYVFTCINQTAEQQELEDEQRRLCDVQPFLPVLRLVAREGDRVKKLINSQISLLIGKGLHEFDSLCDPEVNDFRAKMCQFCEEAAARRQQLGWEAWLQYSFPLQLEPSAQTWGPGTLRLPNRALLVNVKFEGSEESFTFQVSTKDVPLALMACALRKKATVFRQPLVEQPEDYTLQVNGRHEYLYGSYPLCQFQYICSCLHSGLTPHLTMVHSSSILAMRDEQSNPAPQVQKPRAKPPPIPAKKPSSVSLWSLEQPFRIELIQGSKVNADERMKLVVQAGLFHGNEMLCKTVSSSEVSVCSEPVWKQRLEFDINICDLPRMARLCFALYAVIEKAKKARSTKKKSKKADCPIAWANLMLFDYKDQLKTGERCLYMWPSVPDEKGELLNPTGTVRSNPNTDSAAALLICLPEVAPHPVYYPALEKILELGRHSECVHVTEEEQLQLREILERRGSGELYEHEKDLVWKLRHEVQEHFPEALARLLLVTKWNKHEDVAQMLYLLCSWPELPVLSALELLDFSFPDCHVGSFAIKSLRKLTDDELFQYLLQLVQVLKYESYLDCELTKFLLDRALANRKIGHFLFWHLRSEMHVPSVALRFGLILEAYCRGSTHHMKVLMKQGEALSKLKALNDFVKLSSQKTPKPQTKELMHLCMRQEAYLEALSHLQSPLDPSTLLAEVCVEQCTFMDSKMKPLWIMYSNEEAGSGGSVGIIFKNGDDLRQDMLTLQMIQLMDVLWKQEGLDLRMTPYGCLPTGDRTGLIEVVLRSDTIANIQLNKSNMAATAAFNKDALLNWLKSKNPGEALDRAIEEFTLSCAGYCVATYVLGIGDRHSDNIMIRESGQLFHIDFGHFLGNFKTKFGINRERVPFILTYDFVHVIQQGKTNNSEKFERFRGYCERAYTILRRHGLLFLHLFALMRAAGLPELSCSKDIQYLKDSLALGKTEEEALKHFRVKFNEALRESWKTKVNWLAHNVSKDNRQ
- Sequence (P27986 whole entry partner): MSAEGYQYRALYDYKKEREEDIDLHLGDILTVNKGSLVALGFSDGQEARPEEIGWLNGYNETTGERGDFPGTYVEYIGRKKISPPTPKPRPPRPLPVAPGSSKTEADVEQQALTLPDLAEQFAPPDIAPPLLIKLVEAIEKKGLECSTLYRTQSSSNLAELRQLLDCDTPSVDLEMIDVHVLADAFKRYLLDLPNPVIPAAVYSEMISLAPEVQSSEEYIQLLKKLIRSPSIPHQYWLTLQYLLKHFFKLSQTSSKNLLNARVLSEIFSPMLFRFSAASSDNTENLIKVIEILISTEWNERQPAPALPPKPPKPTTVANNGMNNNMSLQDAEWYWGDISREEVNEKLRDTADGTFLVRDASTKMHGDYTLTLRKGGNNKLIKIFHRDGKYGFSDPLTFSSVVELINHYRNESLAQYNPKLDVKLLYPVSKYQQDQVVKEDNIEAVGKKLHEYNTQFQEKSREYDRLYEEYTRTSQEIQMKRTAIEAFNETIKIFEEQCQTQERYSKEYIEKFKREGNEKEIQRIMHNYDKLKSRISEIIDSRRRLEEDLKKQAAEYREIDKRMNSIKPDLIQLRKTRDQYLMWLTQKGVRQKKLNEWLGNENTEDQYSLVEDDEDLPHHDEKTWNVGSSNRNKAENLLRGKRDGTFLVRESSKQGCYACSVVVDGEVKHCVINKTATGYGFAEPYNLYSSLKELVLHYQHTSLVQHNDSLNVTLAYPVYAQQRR
- ASSAY_PROTOCOL: PI3Kδ kinase ADP-Glo assay (Reaction Biology Corporation)
- TEST_CONTEXT: read-out: PI3Kδ IC50
Structures can show the parent of a compound that is named as a salt.
// reported IC50 for each item listed

Example entries and their recorded answers appear below.
COMPOUND: CC(C)N1CCOc2c(F)cc(-c3nc(Nc4cc(F)c(C5CCNCC5)cn4)ncc3F)cc21 [Compound 443]
MEASUREMENT_TARGET: PI3Kδ kinase (Homo sapiens (Human), UniProt O00329)
MEASURED: > 50 µM

COMPOUND: CC(C)N1CCOc2c(F)cc(-c3nc(Nc4cnn(C5CCNCC5)c4)ncc3F)cc21 [Compound 448]
MEASUREMENT_TARGET: PI3Kδ kinase (Homo sapiens (Human), UniProt O00329)
MEASURED: 8.02 µM

COMPOUND: CC(C)N1CCOc2c(F)cc(-c3nc(Nc4ccc(N5CCSCC5)c(F)c4)ncc3F)cc21 [Compound 469]
MEASUREMENT_TARGET: PI3Kδ kinase (Homo sapiens (Human), UniProt O00329)
MEASURED: > 30 µM

The compound identified as CC(C)CN1CCOc2c(F)cc(-c3nc(Nc4ccc(N5CCOCC5)cn4)ncc3F)cc21 [Compound 489] registered its IC50 at > 50 µM

The compound identified as CC(C)N1CCOc2c(F)cc(-c3nc(Nc4ccc(N5CCC(O)CC5)c(F)c4)ncc3F)cc21 [Compound 445] registered its IC50 at > 50 µM

The compound identified as CC(C)N1CCOc2c(F)cc(-c3nc(Nc4ccc(N5CCN(C(=O)CN(C)C)CC5)c(F)c4)ncc3F)cc21 [Compound 449] registered its IC50 at 4.49 µM

The compound identified as CC(C)N1CCOc2c(F)cc(-c3nc(Nc4ccc(N5CCNCC5)c(F)c4)ncc3F)cc21 [Compound 12, hydrochloride] registered its IC50 at 0.674 µM

The compound identified as CN1CCOc2c(F)cc(-c3nc(Nc4ccc(N5CCC(N(C)C)CC5)c(F)c4)ncc3F)cc21 [Compound 467] registered its IC50 at 2.43 µM

The compound identified as Fc1cnc(Nc2ccc(N3CCOCC3)cn2)nc1-c1cc(F)c2c(c1)N(C1CCC1)CCO2 [Compound 487] registered its IC50 at > 50 µM

The compound identified as CC(C)N1CCOc2c(F)cc(-c3nc(Nc4ccc(N5CCNCC5)cn4)ncc3F)cc21 [Compound 1] registered its IC50 at 3.36 µM

The compound identified as CC(C)N1CCOc2c(F)cc(-c3nc(Nc4ccc5c(n4)CCNC5)ncc3F)cc21 [Compound 481] registered its IC50 at > 20 µM

The compound identified as CC(C)N1CCOc2c(F)cc(-c3nc(Nc4ccc(N5CCC(C)(O)CC5)cn4)ncc3F)cc21 [Compound 484] registered its IC50 at > 50 µM

The compound identified as CC(C)N1CCOc2c(F)cc(-c3nc(Nc4ccc(N5CCC(CCO)CC5)cn4)ncc3F)cc21 [Compound 491] registered its IC50 at > 50 µM

The compound identified as CC(C)N1CCOc2c(F)cc(-c3nc(Nc4ccc(N5CCN(C(=O)N(C)C)CC5)cn4)ncc3F)cc21 [Compound 453] registered its IC50 at > 50 µM

The compound identified as CC(C)N1CCOc2c(F)cc(-c3nc(Nc4ccc(N5CCN(CCO)CC5)cn4)ncc3F)cc21 [Compound 490] registered its IC50 at > 50 µM
